Experiment: The drug is tested on Z-010 corresponding to metagenome with ENA study accession number: PRJEB37062 and ENA sample accession number: ERS12561810 for biotransformation under anaerobic condition. The drug concentrations were measured over 9 timepoints collected between 0 and 24 hours of incubation by liquid-chromatography-coupled mass spectrometry (LC–MS); further: call rule not given here
Conditions: 2 µM
metric: Bacterial Biotransformation

Please review the following examples before continuing.
# compound, test.result
records = [
    ("CC(C)c1nc(CN(C)C(=O)N[C@H](C(=O)N[C@@H](Cc2ccccc2)C[C@H](O)[C@H](Cc2ccccc2)NC(=O)OCc2cncs2)C(C)C)cs1 [RITONAVIR]", "Compound metabolized"),
    ("CN1C(C(=O)Nc2ccccn2)=C(O)c2sccc2S1(=O)=O [TENOXICAM]", "Compound NOT metabolized"),
    ("CCC1(c2ccc(N)cc2)CCC(=O)NC1=O (stereo not drawn) [AMINOGLUTETHIMIDE]", "Compound NOT metabolized"),
    ("CCCCCCOC(=O)/N=C(/N)c1ccc(NCc2nc3cc(C(=O)N(CCC(=O)OCC)c4ccccn4)ccc3n2C)cc1.CS(=O)(=O)O [DABIGATRAN ETEXILATE MESYLATE]", "Compound NOT metabolized"),
]

Give Bacterial Biotransformation for each of the items listed below.
1. NS(=O)(=O)c1cc2c(cc1Cl)N=C(CSCc1ccccc1)NS2(=O)=O [BENZTHIAZIDE]
2. CC(CN(C)C)CN1c2ccccc2CCc2ccccc21.O=C(O)/C=C\C(=O)O (stereo not drawn) [TRIMIPRAMINE MALEATE]
3. O=C(O)COCCN1CCN(C(c2ccccc2)c2ccc(Cl)cc2)CC1 (stereo not drawn) [CETIRIZINE]

1. Compound NOT metabolized
2. Compound NOT metabolized
3. Compound metabolized

Look up Bacterial Biotransformation for this compound: Cc1nc(-c2ccc(OCC(C)C)c(C#N)c2)sc1C(=O)O [FEBUXOSTAT]
Compound metabolized

* * *

Test: The drug is tested on WLS-086 corresponding to human gut metagenome with ENA study accession number: PRJEB37062 and ENA sample accession number: ERS12561752 for biotransformation under anaerobic condition. The drug concentrations were measured over 9 timepoints collected between 0 and 24 hours of incubation by liquid-chromatography-coupled mass spectrometry (LC–MS)
Conditions: 2 µM
metric: Bacterial Biotransformation

Before answering, review these 8 worked examples.
# compound, test.result
rows = [
    ("CCC1(c2ccc(N)cc2)CCC(=O)NC1=O (stereo not given) [AMINOGLUTETHIMIDE]", "Compound NOT metabolized"),
    ("Nc1ccc(/N=N/c2ccccc2)c(N)n1", "Compound metabolized"),
    ("CC(Oc1c(Cl)cccc1Cl)C1=NCCN1 (stereo not given)", "Compound metabolized"),
    ("NC(=O)N1c2ccccc2CC(=O)c2ccccc21 [OXCARBAZEPINE]", "Compound NOT metabolized"),
    ("COc1cc2nc(N3CCN(C(=O)c4ccco4)CC3)nc(N)c2cc1OC", "Compound metabolized"),
    ("CCOc1ccc(NC(C)=O)cc1", "Compound NOT metabolized"),
    ("CC(C)NCC(O)COc1ccc(CCOCC2CC2)cc1 (stereo not given)", "Compound metabolized"),
    ("CN1CCc2c(c3ccccc3n2Cc2ccccc2)C1.CN1CCc2c(c3ccccc3n2Cc2ccccc2)C1.O=S(=O)(O)c1cccc2c(S(=O)(=O)O)cccc12", "Compound NOT metabolized"),
]

Batch request: Bacterial Biotransformation for each of the following compounds.
1. Cc1ccnc2c1NC(=O)c1cccnc1N2C1CC1
2. OC(CCN1CCCCC1)(c1ccccc1)C1CC2C=CC1C2 (stereo not given)

["Compound metabolized", "Compound metabolized"]

* * *

Assay: The drug is tested on Z-023 corresponding to metagenome with ENA study accession number: PRJEB37062 and ENA sample accession number: ERS12561822 for biotransformation under anaerobic condition. The drug concentrations were measured over 9 timepoints collected between 0 and 24 hours of incubation by liquid-chromatography-coupled mass spectrometry (LC–MS)
Conditions: 2 µM
metric: Bacterial Biotransformation

The examples below pair each entry with its known result.
# molecule, test.result
records = [
    ("CC(C)N(CCC(C(N)=O)(c1ccccc1)c1ccccn1)C(C)C.O=P(O)(O)O (stereo unspecified) [DISOPYRAMIDE PHOSPHATE]", "Compound NOT metabolized"),
    ("COc1cc2c(c(OC)c1OC)-c1ccc(OC)c(=O)cc1[C@@H](NC(C)=O)CC2", "Compound metabolized"),
    ("COc1c2occc2cc2ccc(=O)oc12", "Compound metabolized"),
    ("CC(C)c1c(C(=O)Nc2ccccc2)c(-c2ccccc2)c(-c2ccc(F)cc2)n1CC[C@@H](O)C[C@@H](O)CC(=O)O", "Compound NOT metabolized"),
    ("OCCN1CCN(CCCN2c3ccccc3Sc3ccc(C(F)(F)F)cc32)CC1", "Compound metabolized"),
    ("CCc1nn(CCCN2CCN(c3cccc(Cl)c3)CC2)c(=O)n1CCOc1ccccc1", "Compound NOT metabolized"),
    ("COc1cc2nc(N3CCN(C(=O)c4ccco4)CC3)nc(N)c2cc1OC", "Compound NOT metabolized"),
    ("O=C1NCC2(CCN(CCc3ccccc3)CC2)O1 [FENSPIRIDE]", "Compound NOT metabolized"),
    ("CN1CCOC(c2ccccc2)c2ccccc2C1 (stereo unspecified)", "Compound NOT metabolized"),
    ("CC(C)NCC(O)COc1ccc(COCCOC(C)C)cc1.CC(C)NCC(O)COc1ccc(COCCOC(C)C)cc1.O=C(O)/C=C/C(=O)O (stereo unspecified) [BISOPROLOL FUMARATE]", "Compound metabolized"),
]

Record Bacterial Biotransformation per entry; entries follow.
1. CC(C)OC(=O)C(C)(C)Oc1ccc(C(=O)c2ccc(Cl)cc2)cc1 [FENOFIBRATE]
2. CN1C(=O)CCS(=O)(=O)C1c1ccc(Cl)cc1 (stereo unspecified)
3. CCOC(=O)[C@H](CCc1ccccc1)N[C@@H](C)C(=O)N1[C@H](C(=O)O)C[C@@H]2CCC[C@@H]21
4. CNC(=C[N+](=O)[O-])NCCSCc1ccc(CN(C)C)o1
5. OC(Cn1cncn1)(Cn1cncn1)c1ccc(F)cc1F
6. CCc1nc(N)nc(N)c1-c1ccc(Cl)cc1
7. CCN(CC)CC#CCOC(=O)C(O)(c1ccccc1)C1CCCCC1.Cl (stereo unspecified) [OXYBUTYNIN CHLORIDE]

1. Compound metabolized
2. Compound NOT metabolized
3. Compound metabolized
4. Compound metabolized
5. Compound metabolized
6. Compound NOT metabolized
7. Compound metabolized

Hey, can you go through the list below and give me Bacterial Biotransformation for every item?
1. CC(C)(C#N)c1cc(Cn2cncn2)cc(C(C)(C)C#N)c1
2. COc1ccccc1N1CCN(CC(O)COc2cccc3ccccc23)CC1 (stereo unspecified)
3. CC(C(=O)O)c1ccc2c(c1)Cc1cccnc1O2 (stereo unspecified)
4. CCOC(=O)[C@H](CCc1ccccc1)N[C@@H](C)C(=O)N1[C@H](C(=O)O)C[C@H]2CCCC[C@@H]21

1: Compound metabolized; 2: Compound metabolized; 3: Compound metabolized; 4: Compound metabolized

Please report Bacterial Biotransformation for every entry that follows.
1. Cc1cn([C@H]2C[C@H](N=[N+]=[N-])[C@@H](CO)O2)c(=O)[nH]c1=O
2. Cc1ccnc2c1NC(=O)c1cccnc1N2C1CC1
3. CCOC(=O)[C@H](CCc1ccccc1)N[C@H]1CCc2ccccc2N(CC(=O)O)C1=O
4. CN(C)C(=O)C(CCN1CCC(O)(c2ccc(Cl)cc2)CC1)(c1ccccc1)c1ccccc1 [LOPERAMIDE]
5. O=C(O)CCc1nc(-c2ccccc2)c(-c2ccccc2)o1
6. CCCc1nc2c(C)cc(-c3nc4ccccc4n3C)cc2n1Cc1ccc(-c2ccccc2C(=O)O)cc1
7. O=C(NCc1ccccc1)OCCO [BURAMATE]
8. CC(C)(C)NC[C@H](O)COc1ccccc1C1CCCC1.CC(C)(C)NC[C@H](O)COc1ccccc1C1CCCC1.O=S(=O)(O)O [PENBUTOLOL SULFATE]

1: Compound NOT metabolized; 2: Compound metabolized; 3: Compound metabolized; 4: Compound metabolized; 5: Compound metabolized; 6: Compound metabolized; 7: Compound NOT metabolized; 8: Compound metabolized

Your task in this section: give Bacterial Biotransformation for each listed record.
1. Nc1ccc(/N=N/c2ccccc2)c(N)n1
2. NS(=O)(=O)c1cc2c(cc1Cl)N=C(CSCc1ccccc1)NS2(=O)=O [BENZTHIAZIDE]
3. Fc1ccc([C@@H]2CCNC[C@H]2COc2ccc3c(c2)OCO3)cc1
4. COc1c(C)c2c(c(O)c1C/C=C(\C)CCC(=O)OCCN1CCOCC1)C(=O)OC2 [MYCOPHENOLATE MOFETIL]
5. O=C(CCCN1CCC(O)(c2ccc(Cl)cc2)CC1)c1ccc(F)cc1

Compound metabolized
Compound metabolized
Compound metabolized
Compound metabolized
Compound metabolized

For every item below, please supply its Bacterial Biotransformation.
1. O=C(Nc1ccccc1)OCC(CN1CCCCC1)OC(=O)Nc1ccccc1 (stereo unspecified)
2. CC(=O)CC(c1ccccc1)c1c(O)c2ccccc2oc1=O (stereo unspecified)

1: Compound metabolized; 2: Compound metabolized

Cited source: ChEMBL document CHEMBL5724914
